- measured on: human collagen type I (acid soluble, extracted from placenta, Sigma C7774) (human) (UniProt P02452)
- Sequence (P02452 162-1218 limits assumed, chain 1 of 2): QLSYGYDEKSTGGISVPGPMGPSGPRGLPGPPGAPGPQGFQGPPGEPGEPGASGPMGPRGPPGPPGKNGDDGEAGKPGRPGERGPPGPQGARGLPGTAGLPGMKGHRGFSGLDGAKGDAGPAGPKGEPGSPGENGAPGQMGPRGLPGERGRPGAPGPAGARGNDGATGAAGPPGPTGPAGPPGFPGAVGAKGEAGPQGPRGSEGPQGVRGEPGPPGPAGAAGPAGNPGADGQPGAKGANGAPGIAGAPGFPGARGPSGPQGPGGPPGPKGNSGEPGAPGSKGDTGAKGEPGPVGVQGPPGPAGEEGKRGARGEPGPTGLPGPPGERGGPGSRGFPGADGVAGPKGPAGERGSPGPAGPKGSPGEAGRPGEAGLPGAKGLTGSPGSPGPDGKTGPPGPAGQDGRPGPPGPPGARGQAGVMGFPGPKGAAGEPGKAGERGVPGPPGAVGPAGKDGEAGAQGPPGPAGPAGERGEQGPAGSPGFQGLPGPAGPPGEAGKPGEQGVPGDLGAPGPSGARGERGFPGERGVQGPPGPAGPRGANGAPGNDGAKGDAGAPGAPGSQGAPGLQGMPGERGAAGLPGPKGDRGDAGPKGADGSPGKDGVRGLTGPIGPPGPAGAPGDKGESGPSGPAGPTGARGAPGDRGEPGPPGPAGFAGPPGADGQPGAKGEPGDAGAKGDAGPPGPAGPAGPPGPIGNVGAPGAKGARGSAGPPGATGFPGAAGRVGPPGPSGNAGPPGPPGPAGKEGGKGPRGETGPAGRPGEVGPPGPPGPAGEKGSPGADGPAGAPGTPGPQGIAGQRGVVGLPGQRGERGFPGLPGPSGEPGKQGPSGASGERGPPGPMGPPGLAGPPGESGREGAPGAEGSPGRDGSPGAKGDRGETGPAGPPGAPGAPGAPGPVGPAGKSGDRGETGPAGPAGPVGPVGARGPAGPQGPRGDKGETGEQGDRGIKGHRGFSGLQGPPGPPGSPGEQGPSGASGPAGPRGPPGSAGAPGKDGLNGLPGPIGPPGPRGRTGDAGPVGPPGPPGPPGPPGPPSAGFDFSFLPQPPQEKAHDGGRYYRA
- Sequence (P08123 80-1119 limits assumed, chain 2 of 2, further chain): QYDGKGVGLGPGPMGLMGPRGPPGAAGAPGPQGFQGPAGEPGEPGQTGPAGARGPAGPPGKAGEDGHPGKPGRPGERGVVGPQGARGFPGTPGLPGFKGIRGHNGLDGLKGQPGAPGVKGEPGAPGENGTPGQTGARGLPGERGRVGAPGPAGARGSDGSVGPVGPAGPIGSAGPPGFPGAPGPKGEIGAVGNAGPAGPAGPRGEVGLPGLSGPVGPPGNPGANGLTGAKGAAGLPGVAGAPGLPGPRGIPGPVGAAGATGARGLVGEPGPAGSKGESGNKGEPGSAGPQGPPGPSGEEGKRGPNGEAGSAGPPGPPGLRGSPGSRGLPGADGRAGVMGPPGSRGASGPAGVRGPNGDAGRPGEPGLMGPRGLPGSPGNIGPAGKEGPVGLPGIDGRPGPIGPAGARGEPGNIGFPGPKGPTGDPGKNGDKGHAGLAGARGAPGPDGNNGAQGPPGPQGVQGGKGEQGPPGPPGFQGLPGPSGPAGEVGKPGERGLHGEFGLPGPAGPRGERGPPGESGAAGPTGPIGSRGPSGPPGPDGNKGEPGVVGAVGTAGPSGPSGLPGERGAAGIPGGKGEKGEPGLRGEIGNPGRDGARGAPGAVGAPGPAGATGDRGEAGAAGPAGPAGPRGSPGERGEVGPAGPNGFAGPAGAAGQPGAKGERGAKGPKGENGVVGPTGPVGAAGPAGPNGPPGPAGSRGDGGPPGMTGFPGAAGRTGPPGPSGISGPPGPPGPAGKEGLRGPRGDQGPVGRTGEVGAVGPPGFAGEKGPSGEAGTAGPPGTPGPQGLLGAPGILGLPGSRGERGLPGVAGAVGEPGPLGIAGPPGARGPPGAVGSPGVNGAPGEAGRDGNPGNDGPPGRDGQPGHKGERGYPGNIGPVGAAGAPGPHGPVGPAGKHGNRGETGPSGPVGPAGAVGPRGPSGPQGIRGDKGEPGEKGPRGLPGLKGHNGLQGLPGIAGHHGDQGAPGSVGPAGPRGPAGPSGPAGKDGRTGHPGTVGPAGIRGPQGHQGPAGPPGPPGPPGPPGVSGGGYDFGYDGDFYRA
- procedure details: dried collagen assay
Bridge positions count the residues as written; N and C are the ends. Ends that are not written are not given here.
Please use 1 for Dried Human Collagen Binding under 6% and 0 for everything else, ties included.

Recorded results for 2 binders are shown here.
binder	class label
TWNCYGVTEWHCYMI (disulfide 4-12; not fully specified (C-terminus)) [SEQ ID NO: 9]	0
HWSCDLAMDNEWFCSTK (disulfide 4-14; not fully specified (C-terminus)) [SEQ ID NO: 84]	1

Take the binder LWTCSMDRNYDWVCGEK (disulfide 4-14; not fully specified (C-terminus)) [SEQ ID NO: 82] and say whether its Dried Human Collagen Binding is less than 6%.
1

Take the binder KWECVHTKGEWYCETK (disulfide 4-13 (inferred); also: C-terminus likely amidated (Rink amide resin)) [SEQ ID NO: 65] and say whether its Dried Human Collagen Binding is less than 6%.
0

Take the binder GWSCHSMDMQWHCDFS (disulfide 4-13 (inferred); also: C-terminus likely amidated (Rink amide resin)) [SEQ ID NO: 67] and say whether its Dried Human Collagen Binding is less than 6%.
1

Take the binder SWHCFLENHHWMCSDH (disulfide 4-13 (inferred); also: C-terminus likely amidated (Rink amide resin)) [SEQ ID NO: 68] and say whether its Dried Human Collagen Binding is less than 6%.
1

Take the binder FWTCELDFRQSWYCYDK (disulfide 4-14 (inferred); not fully specified) [SEQ ID NO: 79] and say whether its Dried Human Collagen Binding is less than 6%.
0

Take the binder SWSCGGDHNAWKCQYS (disulfide 4-13; also: C-terminus probably amidated (Rink amide resin)) [SEQ ID NO: 36] and say whether its Dried Human Collagen Binding is less than 6%.
0

Take the binder TWACDLDEYGGWQCYTG (disulfide 4-14 (inferred); also: C-terminal amide likely (Rink amide resin)) [SEQ ID NO: 78] and say whether its Dried Human Collagen Binding is less than 6%.
0

Take the binder PWWCHEMPSMCFGF (disulfide 4-11; also: C-terminus probably amidated (Rink amide resin)) [SEQ ID NO: 3] and say whether its Dried Human Collagen Binding is less than 6%.
1

Take the binder QWFCEMDEYGKWNCGMM (disulfide 4-14; not fully specified (C-terminus)) [SEQ ID NO: 81] and say whether its Dried Human Collagen Binding is less than 6%.
1
